System: U937 cell line (human histiocytic lymphoma cell line)
assayComment: U937 cell viability assay (TNF-α + Z-VAD-FMK induced necroptosis)
Type: cell-based
cond: Homo sapiens, U-937; U937 cells, hTNF-α 0.1 μg/mL + Z-VAD-FMK 50 μM, 20 hours, CellTiter-Glo
pIC50: −log10 of the molar value.

{"columns": ["compound", "pIC50"],
 "data": [
  ["C[C@@H](n1cncc(-c2ccc(C3(NC(=O)c4ncc5cnn(CC6CC6)c5n4)CC3)cc2)c1=O)C(F)(F)F", 8.70],
  ["CC(C)n1cncc(-c2ccc(C3(NC(=O)c4ncc5cnn(C(C)C6CC6)c5n4)CC3)cc2)c1=O (racemic)", 8.52],
  ["CC(C)n1cncc(-c2ccc(C3(NC(=O)c4ncc5cnn([C@H](C)C6CC6)c5n4)CC3)cc2)c1=O", 8.30],
  ["CC(C)Cc1nc(C(=O)NC2(c3ccc(-c4cncn(C(C)C)c4=O)cc3)CC2)ncc1Cl", 8.52],
  ["Cn1cncc(-c2ccc(C3(NC(=O)c4ncn(Cc5ccccc5)n4)CC3)cc2)c1=O", 7.85],
  ["CC(C)n1ncc2cnc(C(=O)NC3(c4ccc(-c5cncn(CC6CC6)c5=O)c(F)c4)CC3)nc21", 8.70],
  ["CC(C)n1ncc2cnc(C(=O)NC3(c4ccc(-c5cncn(C6CCOC6)c5=O)cc4)CC3)nc21 (stereo in doubt) [Compound 81]", 8.10]
]}

Where do the numbers come from? From patent US20240002388A1.
